Reference source: BindingDB's records for doi:10.1016/j.bmcl.2006.04.011

# Lookup of reported pKi keyed by entry
assay.target: Dimer of Gag-Pol polyprotein [501-599] (Human immunodeficiency virus 1, UniProt P03367)
Construct: 501-599
test.description: Protease Inhibition Assay
pKi: −log10 of the molar value.
quantity.measured: pKi

[[record]]
compound = "CC(C)CN(C(CO)CCCCNC(=O)[C@@H](NC(=O)OC(C)(C)C)C(c1ccccc1)c1ccccc1)S(=O)(=O)c1ccc(N)cc1 (some centres undefined)"
assay_value = 9.30

[[record]]
compound = "CC(C)CN(C(CO)CCCCNC(=O)[C@@H](NC(=O)c1ncccc1O)C(c1ccccc1)c1ccccc1)S(=O)(=O)c1ccc(N)cc1 (some centres undefined)"
assay_value = 9.15

[[record]]
compound = "CC(C)CN(C(CO)CCCCNC(=O)[C@@H](NC(=O)C1CC1)C(c1ccccc1)c1ccccc1)S(=O)(=O)c1ccc(N)cc1 (some centres undefined)"
assay_value = 9.35

[[record]]
compound = "CC(C)CN(C(CO)CCCCNC(=O)[C@@H](NC(=O)OCc1cccnc1)C(c1ccccc1)c1ccccc1)S(=O)(=O)c1ccc(N)cc1 (some centres undefined)"
assay_value = 9.44


----------
# Lookup of reported pKi keyed by entry
assay.target: Dimer of Gag-Pol polyprotein [501-599] (Human immunodeficiency virus 1, UniProt P03367)
Construct: 501-599
test.description: Protease Inhibition Assay
pKi: −log10 of the molar value.
quantity.measured: pKi

[[record]]
molecule = "CC(C)CN(C(CO)CCCCNC(=O)[C@@H](NC(=O)c1ccncc1)C(c1ccccc1)c1ccccc1)S(=O)(=O)c1ccc(N)cc1 (some centres undefined)"
assay_value = 9.18

[[record]]
molecule = "CC(C)CN(C(CO)CCCCNC(=O)[C@@H](NC(=O)c1ccc(O)c([N+](=O)[O-])c1)C(c1ccccc1)c1ccccc1)S(=O)(=O)c1ccc(N)cc1 (some centres undefined)"
assay_value = 9.32

[[record]]
molecule = "CC(C)CN(C(CO)CCCCNC(=O)[C@@H](NC(=O)OCc1ccncc1)C(c1ccccc1)c1ccccc1)S(=O)(=O)c1ccc(N)cc1 (some centres undefined)"
assay_value = 10.70

[[record]]
molecule = "CC(C)CN(C(CO)CCCCNC(=O)[C@@H](NC(=O)c1cccc(O)c1)C(c1ccccc1)c1ccccc1)S(=O)(=O)c1ccc(N)cc1 (some centres undefined)"
assay_value = 9.40

[[record]]
molecule = "CC(C)CN(C(CO)CCCCNC(=O)[C@@H](NC(=O)c1ccccc1O)C(c1ccccc1)c1ccccc1)S(=O)(=O)c1ccc(N)cc1 (some centres undefined)"
assay_value = 9.24

[[record]]
molecule = "CC(C)CN(C(CO)CCCCNC(=O)[C@@H](NC(=O)c1ccc([N+](=O)[O-])c(O)c1)C(c1ccccc1)c1ccccc1)S(=O)(=O)c1ccc(N)cc1 (some centres undefined)"
assay_value = 9.48

[[record]]
molecule = "CC(C)CN(C(CO)CCCCNC(=O)[C@@H](NC(=O)OCc1ccccn1)C(c1ccccc1)c1ccccc1)S(=O)(=O)c1ccc(N)cc1 (some centres undefined)"
assay_value = 9.40

[[record]]
molecule = "COc1cc(C(=O)N[C@H](C(=O)NCCCCC(CO)N(CC(C)C)S(=O)(=O)c2ccc(N)cc2)C(c2ccccc2)c2ccccc2)ccc1O (some centres undefined)"
assay_value = 9.35

[[record]]
molecule = "Cc1ccc(C(=O)N[C@H](C(=O)NCCCCC(CO)N(CC(C)C)S(=O)(=O)c2ccc(N)cc2)C(c2ccccc2)c2ccccc2)cn1 (some centres undefined)"
assay_value = 9.30


----------
assay.target: Dimer of Gag-Pol polyprotein [501-599] (Human immunodeficiency virus 1)
Construct: 501-599
test.description: Protease Inhibition Assay
condition.notes: pH 4.7; 30 °C
# Lookup of reported IC50 keyed by entry
quantity.measured: IC50 (nM)

[[record]]
molecule = "COC(=O)N[C@H](C(=O)NCCCCC(CO)N(CC(C)C)S(=O)(=O)c1ccc(N)cc1)c1ccccc1 (some centres not stated)"
value_qualifier = ">"
assay_value = 300

[[record]]
molecule = "COC(=O)N[C@@H](Cc1ccccc1-c1ccccc1)C(=O)NCCCCC(CO)N(CC(C)C)S(=O)(=O)c1ccc(N)cc1 (some centres not stated)"
value_qualifier = "="
assay_value = 0.521

[[record]]
molecule = "COC(=O)N[C@@H](CCc1ccccc1)C(=O)NCCCCC(CO)N(CC(C)C)S(=O)(=O)c1ccc(N)cc1 (some centres not stated)"
value_qualifier = "="
assay_value = 40

[[record]]
molecule = "COC(=O)N[C@@H](Cc1ccccc1)C(=O)NCCCCC(CO)N(CC(C)C)S(=O)(=O)c1ccc(N)cc1 (some centres not stated)"
value_qualifier = "="
assay_value = 12

[[record]]
molecule = "COC(=O)N1Cc2ccccc2C=C1C(=O)NCCCCC(CO)N(CC(C)C)S(=O)(=O)c1ccc(N)cc1 (configuration not stated) [lysine sulfonamide analogue 8]"
value_qualifier = "="
assay_value = 130

[[record]]
molecule = "COC(=O)N[C@@H](Cc1cccc2ccccc12)C(=O)NCCCCC(CO)N(CC(C)C)S(=O)(=O)c1ccc(N)cc1 (some centres not stated)"
value_qualifier = "="
assay_value = 1.2

[[record]]
molecule = "COC(=O)N[C@@H](Cc1ccc2ccccc2c1)C(=O)NCCCCC(CO)N(CC(C)C)S(=O)(=O)c1ccc(N)cc1 (some centres not stated)"
value_qualifier = "="
assay_value = 1.2


----------
assay.target: Dimer of Gag-Pol polyprotein [501-599] (Human immunodeficiency virus 1)
Construct: 501-599
test.description: Protease Inhibition Assay
quantity.measured: Ki

[[record]]
compound = "CC(C)CN(C(CO)CCCCNC(=O)[C@@H](NC(=O)c1ccc(N)nc1)C(c1ccccc1)c1ccccc1)S(=O)(=O)c1ccc(N)cc1 (some centres undefined)"
quantity_measured = "Ki"
assay_value = "0.5 nM"

[[record]]
compound = "CC(C)CN(C(CO)CCCCNC(=O)[C@@H](NC(=O)c1ccc(=O)[nH]c1)C(c1ccccc1)c1ccccc1)S(=O)(=O)c1ccc(N)cc1 (some centres undefined)"
quantity_measured = "Ki"
assay_value = "0.4 nM"

[[record]]
compound = "CC(C)CN(C(CO)CCCCNC(=O)[C@@H](NC(=O)c1ccccn1)C(c1ccccc1)c1ccccc1)S(=O)(=O)c1ccc(N)cc1 (some centres undefined)"
quantity_measured = "Ki"
assay_value = "0.44 nM"

[[record]]
compound = "CC(C)CN(C(CO)CCCCNC(=O)[C@@H](NC(=O)Cc1cccnc1)C(c1ccccc1)c1ccccc1)S(=O)(=O)c1ccc(N)cc1 (some centres undefined)"
quantity_measured = "Ki"
assay_value = "0.34 nM"


----------
# Lookup of reported pIC50 keyed by entry
assay.target: Dimer of Gag-Pol polyprotein [501-599] (Human immunodeficiency virus 1)
Construct: 501-599
test.description: Protease Inhibition Assay
Method: HIV-1 protease activity was measured by a continuous fluorometric assay. The proteolytic activity can be monitored by the increase in fluorescence intensity, and the protease products were analyzed by HPLC. IC50 values were determined from a dose-response curve, whereas Ki values were obtained by fitting initial rates to a tight-binding inhibition equation.
pIC50: −log10 of the molar value.
quantity.measured: pIC50

[[record]]
compound = "CC(C)CN(C(CO)CCCCNC(=O)[C@@H](NC(=O)C1CCCCC1)C(c1ccccc1)c1ccccc1)S(=O)(=O)c1ccc(N)cc1 (stereo not given in full)"
value_qualifier = ">"
assay_value = 8.42

[[record]]
compound = "CC(C)CN(C(CO)CCCCNC(=O)[C@@H](NC(=O)c1ccc(=O)[nH]c1)C(c1ccccc1)c1ccccc1)S(=O)(=O)c1ccc(N)cc1 (stereo not given in full)"
value_qualifier = "="
assay_value = 9.30

[[record]]
compound = "CC(C)CN(C(CO)CCCCNC(=O)[C@@H](NC(=O)c1ccccn1)C(c1ccccc1)c1ccccc1)S(=O)(=O)c1ccc(N)cc1 (stereo not given in full)"
value_qualifier = "="
assay_value = 9.34

[[record]]
compound = "CC(C)CN(C(CO)CCCCNC(=O)[C@@H](NC(=O)OCc1cccnc1)C(c1ccccc1)c1ccccc1)S(=O)(=O)c1ccc(N)cc1 (stereo not given in full)"
value_qualifier = "="
assay_value = 9.32

[[record]]
compound = "CC(C)CN(C(CO)CCCCNC(=O)[C@@H](NC(=O)OC(C)(C)C)C(c1ccccc1)c1ccccc1)S(=O)(=O)c1ccc(N)cc1 (stereo not given in full)"
value_qualifier = "="
assay_value = 9.40

[[record]]
compound = "CC(C)CN(C(CO)CCCCNC(=O)[C@@H](NC(=O)c1ccc(N)nc1)C(c1ccccc1)c1ccccc1)S(=O)(=O)c1ccc(N)cc1 (stereo not given in full)"
value_qualifier = "="
assay_value = 9.40

[[record]]
compound = "CC(C)CN(C(CO)CCCCNC(=O)[C@@H](NC(=O)c1cccc(O)c1)C(c1ccccc1)c1ccccc1)S(=O)(=O)c1ccc(N)cc1 (stereo not given in full)"
value_qualifier = "="
assay_value = 9.40

[[record]]
compound = "CC(C)CN(C(CO)CCCCNC(=O)[C@@H](NC(=O)c1ccc([N+](=O)[O-])c(O)c1)C(c1ccccc1)c1ccccc1)S(=O)(=O)c1ccc(N)cc1 (stereo not given in full)"
value_qualifier = "="
assay_value = 9.48

[[record]]
compound = "CC(C)CN(C(CO)CCCCNC(=O)[C@@H](NC(=O)c1ccc(O)c([N+](=O)[O-])c1)C(c1ccccc1)c1ccccc1)S(=O)(=O)c1ccc(N)cc1 (stereo not given in full)"
value_qualifier = "="
assay_value = 9.25

[[record]]
compound = "CC(C)CN(C(CO)CCCCNC(=O)[C@@H](NC(=O)OCc1ccccn1)C(c1ccccc1)c1ccccc1)S(=O)(=O)c1ccc(N)cc1 (stereo not given in full)"
value_qualifier = "="
assay_value = 9.92

[[record]]
compound = "Cc1ncccc1C(=O)N[C@H](C(=O)NCCCCC(CO)N(CC(C)C)S(=O)(=O)c1ccc(N)cc1)C(c1ccccc1)c1ccccc1 (stereo not given in full)"
value_qualifier = "="
assay_value = 9.40

[[record]]
compound = "CC(=O)N[C@H](C(=O)NCCCCC(CO)N(CC(C)C)S(=O)(=O)c1ccc(N)cc1)C(c1ccccc1)c1ccccc1 (stereo not given in full)"
value_qualifier = "="
assay_value = 8.82

[[record]]
compound = "CC(C)CN(C(CO)CCCCNC(=O)[C@@H](NC(=O)Cc1cccnc1)C(c1ccccc1)c1ccccc1)S(=O)(=O)c1ccc(N)cc1 (stereo not given in full)"
value_qualifier = "="
assay_value = 9.62

[[record]]
compound = "CC(C)CN(C(CO)CCCCNC(=O)[C@@H](NC(=O)C1CC1)C(c1ccccc1)c1ccccc1)S(=O)(=O)c1ccc(N)cc1 (stereo not given in full)"
value_qualifier = "="
assay_value = 9.37

[[record]]
compound = "CC(C)CN(C(CO)CCCCNC(=O)[C@@H](NC(=O)N1CCOCC1)C(c1ccccc1)c1ccccc1)S(=O)(=O)c1ccc(N)cc1 (stereo not given in full)"
value_qualifier = "="
assay_value = 9.29

